test system: MCF7; experiment: cells; type: functional, cell-based; conditions: Homo sapiens, MCF7, 72 h
pIC50: −log10 of the molar value.
Entry flag: rule met if pIC50 reaches 5; rule not met if it does not.

{"compound": "O=C(O)CCCCCCC(=O)Nc1ccc(C2=C(c3ccc(O)cc3)C3CC(S(=O)(=O)Oc4cccc5ccccc45)C2O3)cc1 (stereo not drawn)", "class": "rule met"}
{"compound": "Cc1cccc(OS(=O)(=O)C2CC3OC2C(c2ccc(NC(=O)CCCCCCC(=O)O)cc2)=C3c2ccc(O)cc2)c1 (racemic)", "class": "rule met"}
{"compound": "O=C(O)CCCCCCC(=O)Nc1cccc(OS(=O)(=O)C2CC3OC2C(c2ccc(O)cc2)=C3c2ccc(O)cc2)c1 (stereo not drawn)", "class": "rule not met"}
{"compound": "COc1ccc(OS(=O)(=O)C2CC3OC2C(c2ccc(NC(=O)CCCCCCC(=O)O)cc2)=C3c2ccc(O)cc2)cc1 (racemic)", "class": "rule not met"}
{"compound": "COc1ccccc1OS(=O)(=O)C1CC2OC1C(c1ccc(NC(=O)CCCCCCC(=O)O)cc1)=C2c1ccc(O)cc1 (racemic)", "class": "rule not met"}
{"compound": "O=C(O)CCCCCCC(=O)Nc1ccc(C2=C(c3ccc(O)cc3)C3CC(S(=O)(=O)Oc4cccc(O)c4)C2O3)cc1 (racemic)", "class": "rule met"}
{"compound": "O=C(CCCCCCC(=O)Nc1ccc(C2=C(c3ccc(O)cc3)C3CC(S(=O)(=O)Oc4ccc(F)cc4)C2O3)cc1)NO (racemic)", "class": "rule not met"}
{"compound": "O=C(CCCCCCC(=O)Nc1ccc(OS(=O)(=O)C2CC3OC2C(c2ccc(O)cc2)=C3c2ccc(O)cc2)cc1)NO (stereo not drawn)", "class": "rule not met"}
{"compound": "O=C(O)CCCCCCC(=O)Nc1ccc(C2=C(c3ccc(O)cc3)C3CC(S(=O)(=O)Oc4ccc(F)cc4)C2O3)cc1 (racemic)", "class": "rule not met"}
{"compound": "O=C(CCCCCCC(=O)Nc1ccc(C2=C(c3ccc(O)cc3)C3CC(S(=O)(=O)Oc4ccc5ccccc5c4)C2O3)cc1)NO (stereo not drawn)", "class": "rule not met"}
{"compound": "COc1cccc(OS(=O)(=O)C2CC3OC2C(c2ccc(NC(=O)CCCCCCC(=O)O)cc2)=C3c2ccc(O)cc2)c1 (racemic)", "class": "rule not met"}
{"compound": "Cc1ccc(OS(=O)(=O)C2CC3OC2C(c2ccc(NC(=O)CCCCCCC(=O)O)cc2)=C3c2ccc(O)cc2)cc1 (racemic)", "class": "rule not met"}
{"compound": "Cc1ccccc1OS(=O)(=O)C1CC2OC1C(c1ccc(NC(=O)CCCCCCC(=O)NO)cc1)=C2c1ccc(O)cc1 (racemic)", "class": "rule not met"}
{"compound": "Cc1cccc(C)c1OS(=O)(=O)C1CC2OC1C(c1ccc(NC(=O)CCCCCCC(=O)O)cc1)=C2c1ccc(O)cc1 (racemic)", "class": "rule not met"}
{"compound": "Cc1ccc(OS(=O)(=O)C2CC3OC2C(c2ccc(NC(=O)CCCCCCC(=O)NO)cc2)=C3c2ccc(O)cc2)cc1 (racemic)", "class": "rule not met"}
{"compound": "COc1ccccc1OS(=O)(=O)C1CC2OC1C(c1ccc(NC(=O)CCCCCCC(=O)NO)cc1)=C2c1ccc(O)cc1 (racemic)", "class": "rule not met"}
{"compound": "O=C(CCCCCCC(=O)Nc1ccc(C2=C(c3ccc(O)cc3)C3CC(S(=O)(=O)Oc4ccccc4)C2O3)cc1)NO (racemic)", "class": "rule not met"}
{"compound": "O=C(O)CCCCCCC(=O)Nc1ccc(C2=C(c3ccc(O)cc3)C3CC(S(=O)(=O)Oc4ccccc4)C2O3)cc1 (racemic)", "class": "rule not met"}
{"compound": "O=C(O)CCCCCCC(=O)Nc1ccc(C2=C(c3ccc(O)cc3)C3CC(S(=O)(=O)Oc4ccc5ccccc5c4)C2O3)cc1 (stereo not drawn)", "class": "rule not met"}
{"compound": "O=C(O)CCCCCCC(=O)Nc1ccc(C2=C(c3ccc(O)cc3)C3CC(S(=O)(=O)Oc4ccc(C(F)(F)F)cc4)C2O3)cc1 (racemic)", "class": "rule not met"}
{"compound": "Cc1cccc(OS(=O)(=O)C2CC3OC2C(c2ccc(NC(=O)CCCCCCC(=O)NO)cc2)=C3c2ccc(O)cc2)c1 (racemic)", "class": "rule not met"}
{"compound": "O=C(O)CCCCCCC(=O)Nc1ccc(C2=C(c3ccc(O)cc3)C3CC(S(=O)(=O)Oc4ccc(Br)cc4)C2O3)cc1 (racemic)", "class": "rule not met"}
{"compound": "O=C(O)CCCCCCC(=O)Nc1ccc(OS(=O)(=O)C2CC3OC2C(c2ccc(O)cc2)=C3c2ccc(O)cc2)cc1 (stereo not drawn)", "class": "rule not met"}
{"compound": "O=C(CCCCCCC(=O)Nc1ccc(C2=C(c3ccc(O)cc3)C3CC(S(=O)(=O)Oc4ccc(Br)cc4)C2O3)cc1)NO (racemic)", "class": "rule not met"}
{"compound": "O=C(O)CCCCCCC(=O)Nc1ccc(C2=C(c3ccc(O)cc3)C3CC(S(=O)(=O)Oc4ccc(Cl)cc4)C2O3)cc1 (racemic)", "class": "rule met"}

---

tested on: DU-145; assay: cells; type: functional, cell-based; settings: Homo sapiens, DU-145, 72 h
observedProperty: IC50 (µM)

{"compound": "O=C(O)CCCCCCC(=O)Nc1ccc(C2=C(c3ccc(O)cc3)C3CC(S(=O)(=O)Oc4ccc(Br)cc4)C2O3)cc1 (racemic)", "comparisonSign": ">", "observed": 100}
{"compound": "O=C(O)CCCCCCC(=O)Nc1ccc(C2=C(c3ccc(O)cc3)C3CC(S(=O)(=O)Oc4ccc5ccccc5c4)C2O3)cc1 (centres undefined)", "comparisonSign": "=", "observed": 58.3}
{"compound": "O=C(O)CCCCCCC(=O)Nc1ccc(C2=C(c3ccc(O)cc3)C3CC(S(=O)(=O)Oc4cccc5ccccc45)C2O3)cc1 (centres undefined)", "comparisonSign": "=", "observed": 48.6}
{"compound": "O=C(O)CCCCCCC(=O)Nc1ccc(C2=C(c3ccc(O)cc3)C3CC(S(=O)(=O)Oc4ccc(O)cc4)C2O3)cc1 (racemic)", "comparisonSign": ">", "observed": 100}
{"compound": "O=C(O)CCCCCCC(=O)Nc1ccc(C2=C(c3ccc(O)cc3)C3CC(S(=O)(=O)Oc4ccccc4)C2O3)cc1 (racemic)", "comparisonSign": ">", "observed": 100}
{"compound": "Cc1ccc(OS(=O)(=O)C2CC3OC2C(c2ccc(NC(=O)CCCCCCC(=O)NO)cc2)=C3c2ccc(O)cc2)cc1 (racemic)", "comparisonSign": "=", "observed": 42.9}
{"compound": "O=C(O)CCCCCCC(=O)Nc1ccc(C2=C(c3ccc(O)cc3)C3CC(S(=O)(=O)Oc4ccc(C(F)(F)F)cc4)C2O3)cc1 (racemic)", "comparisonSign": "=", "observed": 77}
{"compound": "COC(=O)CCCCCCC(=O)Nc1ccc(OS(=O)(=O)C2CC3OC2C(c2ccc(O)cc2)=C3c2ccc(O)cc2)cc1 (centres undefined)", "comparisonSign": "=", "observed": 20.4}
{"compound": "O=C(CCCCCCC(=O)Nc1ccc(OS(=O)(=O)C2CC3OC2C(c2ccc(O)cc2)=C3c2ccc(O)cc2)cc1)NO (centres undefined)", "comparisonSign": "=", "observed": 42.3}
{"compound": "Cc1cccc(C)c1OS(=O)(=O)C1CC2OC1C(c1ccc(NC(=O)CCCCCCC(=O)O)cc1)=C2c1ccc(O)cc1 (racemic)", "comparisonSign": ">", "observed": 100}
{"compound": "COc1ccc(OS(=O)(=O)C2CC3OC2C(c2ccc(NC(=O)CCCCCCC(=O)O)cc2)=C3c2ccc(O)cc2)cc1 (racemic)", "comparisonSign": "=", "observed": 38.6}
{"compound": "O=C(O)CCCCCCC(=O)Nc1ccc(C2=C(c3ccc(O)cc3)C3CC(S(=O)(=O)Oc4cccc(O)c4)C2O3)cc1 (racemic)", "comparisonSign": "=", "observed": 23.8}
{"compound": "COc1cccc(OS(=O)(=O)C2CC3OC2C(c2ccc(NC(=O)CCCCCCC(=O)O)cc2)=C3c2ccc(O)cc2)c1 (racemic)", "comparisonSign": "=", "observed": 53.8}
{"compound": "O=C(O)CCCCCCC(=O)Nc1ccc(C2=C(c3ccc(O)cc3)C3CC(S(=O)(=O)Oc4ccc(F)cc4)C2O3)cc1 (racemic)", "comparisonSign": ">", "observed": 100}

---

molecular target: Estrogen receptor (Homo sapiens, UniProt P03372); test: Agonist activity at ER-alpha (unknown origin) transfected in HEK293T cells assessed as stimulation of transcriptional activity after 24 hrs by luciferase reporter gene assay
Sequence (P03372 whole entry): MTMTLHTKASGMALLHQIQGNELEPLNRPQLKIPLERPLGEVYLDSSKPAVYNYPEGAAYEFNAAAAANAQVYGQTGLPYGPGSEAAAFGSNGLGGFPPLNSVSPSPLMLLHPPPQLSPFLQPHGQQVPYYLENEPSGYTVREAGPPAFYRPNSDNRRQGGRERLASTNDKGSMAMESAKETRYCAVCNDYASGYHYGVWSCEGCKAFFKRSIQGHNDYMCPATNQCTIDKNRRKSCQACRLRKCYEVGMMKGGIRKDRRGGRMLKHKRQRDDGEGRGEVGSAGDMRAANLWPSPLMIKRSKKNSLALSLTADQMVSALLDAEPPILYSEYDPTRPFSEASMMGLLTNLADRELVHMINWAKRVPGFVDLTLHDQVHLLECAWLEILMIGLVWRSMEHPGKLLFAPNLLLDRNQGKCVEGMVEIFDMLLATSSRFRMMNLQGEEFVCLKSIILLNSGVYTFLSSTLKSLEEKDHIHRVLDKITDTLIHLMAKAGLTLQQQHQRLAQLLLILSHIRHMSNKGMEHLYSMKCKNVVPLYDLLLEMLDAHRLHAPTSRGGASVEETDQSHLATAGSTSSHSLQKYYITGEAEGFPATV
observedProperty: log10 of EC50 (log10 of the value in nM)

{"compound": "O=C(CCCCCCC(=O)Nc1ccc(C2=C(c3ccc(O)cc3)C3CC(S(=O)(=O)Oc4ccc(Br)cc4)C2O3)cc1)NO (racemic)", "observed": 3.06}
{"compound": "O=C(O)CCCCCCC(=O)Nc1ccc(C2=C(c3ccc(O)cc3)C3CC(S(=O)(=O)Oc4ccc(Cl)cc4)C2O3)cc1 (racemic)", "observed": 2.90}
{"compound": "COC(=O)CCCCCCC(=O)Nc1cccc(OS(=O)(=O)C2CC3OC2C(c2ccc(O)cc2)=C3c2ccc(O)cc2)c1 (stereo not given)", "observed": 0.00}
{"compound": "O=C(O)CCCCCCC(=O)Nc1ccc(C2=C(c3ccc(O)cc3)C3CC(S(=O)(=O)Oc4cccc(O)c4)C2O3)cc1 (racemic)", "observed": 3.57}
{"compound": "O=C(O)CCCCCCC(=O)Nc1ccc(C2=C(c3ccc(O)cc3)C3CC(S(=O)(=O)Oc4ccc(F)cc4)C2O3)cc1 (racemic)", "observed": 4.26}
